Catalogue of compounds with associated EC50
test system: NS5A chimeric genotype 1b Con1 replicon with genotype 3a S52 strain NS5A gene; assay: Replicon assay, genotype 3a NS5A chimera; type: cell-based, HCV; settings: Hepatitis C virus, read-out: 3a (s) (nM), genotype 3a NS5A chimeric replicon, stable replicon cells (s)
Give the quantity in nM, number only.

As a guide, the following entries are already answered.
CC[C@H](C)[C@H](NC(=O)OC)C(=O)N1[C@@H](C)CC[C@H]1c1ncc(-c2ccc3c(c2)COc2cc4c(ccc5nc([C@@H]6CC[C@H](C)N6C(=O)[C@@H](NC(=O)OC)C(C)C)[nH]c54)cc2-3)[nH]1 0.054
COC(=O)N[C@@H](CO)C(=O)N1[C@@H](C)CC[C@H]1c1nc2ccc3cc4c(cc3c2[nH]1)OCc1cc(-c2cnc([C@@H]3CC[C@H](C)N3C(=O)[C@@H](NC(=O)OC)C(C)C)[nH]2)ccc1-4 0.158
COC(=O)N[C@H](C(=O)N1[C@@H](C)CC[C@H]1c1ncc(-c2ccc3c(c2)COc2cc4c(ccc5nc([C@@H]6CC[C@H](C(C)C)N6C(=O)[C@@H](NC(=O)OC)C6CCOCC6)[nH]c54)cc2-3)[nH]1)C(C)C 0.801

Next item in the queue.
**Q:** Param readout= EC50; system= NS5A chimeric genotype 1b Con1 replicon with genotype 3a S52 strain NS5A gene; entry= COC(=O)N[C@H](C(=O)N1[C@H](c2ncc(-c3ccc4c(c3)COc3cc5c(ccc6nc([C@@H]7CC[C@H](C)N7C(=O)[C@@H](NC(=O)OC)C7CCOCC7)[nH]c65)cc3-4)[nH]2)C[C@@H]2CCC[C@@H]21)C(C)C ; returns value.
**A:** 0.045

* * *

tested on: stable HCV 2a JFH-1 Rluc replicon cells (L31 present in NS5A); experiment: Renilla luciferase HCV replicon reporter assay, genotype 2a JFH-1; format: cell-based; settings: Hepatitis C virus, read-out: 2a JFH (nM), genotype 2a JFH-1 replicon (L31 in NS5A), stable cells
Observable: EC50 (nM)
Only the number, expressed in nM, is required.

Here are 3 compounds together with their reported answers.
COC[C@H]1C[C@@H](c2ncc(-c3ccc4c(c3)c(=O)oc3cc5c(ccc6nc([C@@H]7CC[C@H](C)N7C(=O)[C@@H](NC(=O)OC)C(C)C)[nH]c65)cc34)[nH]2)N(C(=O)[C@H](NC(=O)OC)c2ccccc2)C1 0.024
COC(=O)N[C@H](C(=O)N1C[C@@H](C)C[C@H]1c1ncc(-c2ccc3c(c2)COc2cc4c(ccc5nc([C@@H]6CC[C@H](C)N6C(=O)[C@@H](NC(=O)OC)[C@@H](C)OC)[nH]c54)cc2-3)[nH]1)[C@@H](C)OC 0.016
COC(=O)N[C@H](C(=O)N1[C@@H](C)CC[C@H]1c1ncc(-c2ccc3c(c2)COc2cc4c(ccc5nc([C@@H]6CC[C@H](C)N6C(=O)[C@@H](NC(=O)OC)[C@@H](C)OC)[nH]c54)cc2-3)[nH]1)C1CCOCC1 0.015

Please look at the following compound next.
**Q:** // fetch stable HCV 2a JFH-1 Rluc replicon cells (L31 present in NS5A) EC50 for CC[C@H](C)[C@H](NC(=O)OC)C(=O)N1[C@@H](C)CC[C@H]1c1nc2ccc3cc4c(cc3c2[nH]1)OCc1cc(-c2cnc([C@@H]3CC[C@H](C)N3C(=O)[C@@H](NC(=O)OC)C3CCOCC3)[nH]2)ccc1-4
**A:** 0.01

* * *

Entries and their EC50 values follow.
Tested on: NS5A chimeric genotype 2a JFH-1 replicon with genotype 2b MD2b-1 strain NS5A gene (M31 present)
Assay: Replicon assay, genotype 2b NS5A chimera
Assay type: cell-based, HCV
Conditions: Hepatitis C virus, read-out: 2b (s) (nM), genotype 2b MD2b-1 NS5A chimeric replicon (M31), stably replicating replicon cells (s)
Protocol: Evaluation of Cell-Based Anti-HCV Activity: Antiviral potency (EC50) was determined using a Renilla luciferase (RLuc)-based HCV replicon reporter assay. […] 72 hours later, cells were lysed and Renilla luciferase activity quantified as recommended by the manufacturer (Promega-Madison, Wis.). […]
Enter your answer as a number in nM; do not include the unit.

COC[C@H]1C[C@@H](c2ncc(-c3ccc4c(c3)COc3cc5c(ccc6nc([C@@H]7C[C@H](COC)CN7C(=O)[C@H](NC(=O)OC)c7ccccc7)[nH]c65)cc3-4)[nH]2)N(C(=O)[C@H](NC(=O)OC)c2ccccc2)C1 0.035

Consider the record given below.
**Q:** Need EC50 of COC(=O)N[C@H](C(=O)N1C[C@@H](C)C[C@H]1c1ncc(-c2ccc3c(c2)COc2cc4c(ccc5nc([C@@H]6CC[C@H](C)N6C(=O)[C@@H](NC(=O)OC)C6CCOCC6)[nH]c54)cc2-3)[nH]1)C(C)C , thanks.
**A:** 0.142

* * *

assay: IV and PO single dose pharmacokinetic studies in SD rats; assay type: in vivo, male Sprague-Dawley (SD) rats; details: Sprague-Dawley, rat, plasma, male SD rats, PO 2 mg/kg vs IV infusion 1 mg/kg, read-out: Rat % F
Catalogue of bioavailability values
Give me the value, and tack the unit on after it.

Compound	bioavailability
COC(=O)N[C@H](C(=O)N1[C@@H](C)CC[C@H]1c1ncc(-c2ccc3c(c2)COc2cc4c(ccc5nc([C@@H]6CC[C@H](C)N6C(=O)[C@@H](NC(=O)OC)[C@@H](C)OC(F)F)[nH]c54)cc2-3)[nH]1)C(C)C [FM]	22.7%
COC[C@H]1C[C@@H](c2nc(Cl)c(-c3ccc4c(c3)COc3cc5c(ccc6nc([C@@H]7CC[C@H](C)N7C(=O)[C@@H](NC(=O)OC)C(C)C)[nH]c65)cc3-4)[nH]2)N(C(=O)[C@H](NC(=O)OC)c2ccccc2)C1 [FY]	13.5%
CC[C@H]1CC[C@@H](c2nc3ccc4cc5c(cc4c3[nH]2)OCc2cc(-c3cnc([C@@H]4C[C@@H]6CCC[C@@H]6N4C(=O)[C@@H](NC(=O)OC)C(C)C)[nH]3)ccc2-5)N1C(=O)[C@@H](NC(=O)OC)C1CCOCC1 [IU]	26.5%
CC[C@H]1CC[C@@H](c2ncc(-c3ccc4c(c3)COc3cc5c(ccc6nc([C@@H]7CC[C@H](CC)N7C(=O)[C@@H](NC(=O)OC)C7CCOCC7)[nH]c65)cc3-4)[nH]2)N1C(=O)[C@@H](NC(=O)OC)C(C)C [IG]	28.2%

**Q:** Requested read-out: bioavailability. Entry: CC[C@H]1CC[C@@H](c2ncc(-c3ccc4c(c3)COc3cc5c(ccc6nc([C@@H]7CC[C@H](C)N7C(=O)[C@@H](NC(=O)OC)C(C)C)[nH]c65)cc3-4)[nH]2)N1C(=O)[C@@H](NC(=O)OC)C1CCOCC1 [HQ]
**A:** 34.3%

**Q:** What would you report for COC(=O)N[C@H](C(=O)N1[C@@H](C)CC[C@H]1c1ncc(-c2ccc3c(c2)COc2cc4c(ccc5nc([C@@H]6CC[C@H](C)N6C(=O)[C@@H](NC(=O)OC)[C@@H](C)OC)[nH]c54)cc2-3)[nH]1)C(C)C [FA] ?
**A:** 13.5%

**Q:** Check COC(=O)NC(C(=O)N1[C@@H](C)CC[C@H]1c1nc2ccc3cc4c(cc3c2[nH]1)OCc1cc(-c2cnc([C@@H]3CC[C@H](C)N3C(=O)[C@@H](NC(=O)OC)C3CCOCC3)[nH]2)ccc1-4)C1CCOCC1 (stereo partly drawn) [EB] too.
**A:** 4.2%

**Q:** Could you do the same for CC[C@H](C)[C@H](NC(=O)OC)C(=O)N1[C@H](c2ncc(-c3ccc4c(c3)COc3cc5c(ccc6nc([C@@H]7CC[C@H](C)N7C(=O)[C@@H](NC(=O)OC)C7CCOCC7)[nH]c65)cc3-4)[nH]2)C[C@@H]2CCC[C@@H]21 [IL] , please?
**A:** 40.9%

**Q:** Let us now turn to COC[C@H]1C[C@@H](c2nc(C3CC3)c(-c3ccc4c(c3)COc3cc5c(ccc6nc([C@@H]7CC[C@H](C)N7C(=O)[C@@H](NC(=O)OC)C(C)C)[nH]c65)cc3-4)[nH]2)N(C(=O)[C@H](NC(=O)OC)c2ccccc2)C1 [FZ]
**A:** 18.5%

* * *

tested on: NS5A chimeric genotype 2a JFH-1 replicon with genotype 2b MD2b-1 strain NS5A gene (M31 present); experiment: Replicon assay, genotype 2b NS5A chimera; format: cell-based, HCV; settings: Hepatitis C virus, read-out: 2b (s) (nM), genotype 2b MD2b-1 NS5A chimeric replicon (M31), stably replicating replicon cells (s)
Observable: EC50 (nM)
Give your result in nM as a bare value.

Compound	EC50 [nM]
COC(=O)N[C@H](C(=O)N1[C@@H](C)CC[C@H]1c1nc(C2CC2)c(-c2ccc3c(c2)COc2cc4c(ccc5nc([C@@H]6CC[C@H](C)N6C(=O)[C@@H](NC(=O)OC)[C@@H](C)OC)[nH]c54)cc2-3)[nH]1)[C@@H](C)OC	0.117

**Q:** Look at this compound and give its reported EC50. COC(=O)N[C@H](C(=O)N1[C@@H](C)CC[C@H]1c1ncc(-c2ccc3c(c2)COc2cc4c(ccc5nc([C@@H]6CC[C@H](C)N6C(=O)[C@@H](NC(=O)OC)[C@H](C)O)[nH]c54)cc2-3)[nH]1)C(C)C
**A:** 1.79

**Q:** Param item: CC[C@H]1CC[C@@H](c2nc3ccc4cc5c(cc4c3[nH]2)OCc2cc(-c3cnc([C@@H]4CC[C@H](C)N4C(=O)[C@@H](NC(=O)OC)C(C)C)[nH]3)ccc2-5)N1C(=O)[C@@H](NC(=O)OC)C(C)C
**A:** 0.691
